Molecular target: HLA-A*02:01 (Homo sapiens, UniProt P04439, D140Y/D185E/D98H/E176V/E277Q/G131W/G231S/I119V/I121R/I166T/I218V/L300P/L318F/N151K/N90K/P208A/P217A/Q86G/Q94H/R138H/R169H/T345S)
Test: MHC binding assay (UV-ligand exchange, β2m ELISA, peptide exchange yield)
Conditions: MHC class I binding score; binding to HLA-A*02:01 ranged by peptide exchange yield (UV-ligand exchange, β2m ELISA)

SUBSTANCE: 363 (KVLDVSDLESV; listed as Homo sapiens) [compound 363]
Peptide exchange: ″++″ (≧20% = ++)
//
SUBSTANCE: 523 (YQIPRTFTL; listed as Homo sapiens) [compound 523]
Peptide exchange: ″++″ (≧20% = ++)

###

Biological target: HLA-A*02:01 (Homo sapiens, UniProt P04439, D140Y/D185E/D98H/E176V/E277Q/G131W/G231S/I119V/I121R/I166T/I218V/L300P/L318F/N151K/N90K/P208A/P217A/Q86G/Q94H/R138H/R169H/T345S)
Assay: MHC binding assay (UV-ligand exchange, β2m ELISA, peptide exchange yield)
Settings: MHC class I binding score; binding to HLA-A*02:01 ranged by peptide exchange yield (UV-ligand exchange, β2m ELISA)
PROPERTY: Peptide exchange

Here's what some known entries look like.
SUBSTANCE: 471 (YLYNNMIAKI; listed as Homo sapiens) [compound 471]
PROPERTY: Peptide exchange
RESULT: ″+++″ (≧50% = +++)
--
SUBSTANCE: 526 (RLAEVGQYEQV; listed as Homo sapiens) [compound 526]
PROPERTY: Peptide exchange
RESULT: ″++″ (≧20% = ++)
--
SUBSTANCE: 130 (FLWNGEDSALL; listed as Homo sapiens) [compound 130]
PROPERTY: Peptide exchange
RESULT: ″+++″ (≧50% = +++)
--
SUBSTANCE: 9 (GAAKDLPGV; listed as Homo sapiens) [compound 9]
PROPERTY: Peptide exchange
RESULT: ″++″ (≧20% = ++)
--
SUBSTANCE: 389 (LLADVTHLL; listed as Homo sapiens) [compound 389]
PROPERTY: Peptide exchange
RESULT: ″++″ (≧20% = ++)
--
SUBSTANCE: 456 (LLIGHLERV; listed as Homo sapiens) [compound 456]
PROPERTY: Peptide exchange
RESULT: ″+++″ (≧50% = +++)

Given the substance 400 (SLLTEQDLWTV; listed as Homo sapiens) [compound 400] , write its reported Peptide exchange.
″++″ (≧20% = ++)

Given the substance 41 (SLMPHIPGL; listed as Homo sapiens) [compound 41] , write its reported Peptide exchange.
″+++″ (≧50% = +++)

Given the substance 208 (KISPVTFSV; listed as Homo sapiens) [compound 208] , write its reported Peptide exchange.
″+++″ (≧50% = +++)

Given the substance 555 (YVLEGLKSV; listed as Homo sapiens) [compound 555] , write its reported Peptide exchange.
″+++″ (≧50% = +++)

Given the substance 113 (GLLPTPLFGV; listed as Homo sapiens) [compound 113] , write its reported Peptide exchange.
″+++″ (≧50% = +++)

Given the substance 486 (AVMESIQGV; listed as Homo sapiens) [compound 486] , write its reported Peptide exchange.
″+++″ (≧50% = +++)

###

Molecular target: HLA-A*02:01 (Homo sapiens, UniProt P04439, D140Y/D185E/D98H/E176V/E277Q/G131W/G231S/I119V/I121R/I166T/I218V/L300P/L318F/N151K/N90K/P208A/P217A/Q86G/Q94H/R138H/R169H/T345S)
Experiment: MHC binding assay (UV-ligand exchange, β2m ELISA, peptide exchange yield)
Details: MHC class I binding score; binding to HLA-A*02:01 ranged by peptide exchange yield (UV-ligand exchange, β2m ELISA)
PROPERTY: Peptide exchange

Here's what some known entries look like.
SUBSTANCE: 350 (ALLDVTHSELTV; listed as Homo sapiens) [compound 350]
Peptide exchange: ″+++″ (≧50% = +++)

SUBSTANCE: 544 (LLWDVPAPSL; listed as Homo sapiens) [compound 544]
Peptide exchange: ″+++″ (≧50% = +++)

SUBSTANCE: 166 (YLNHLEPPV; listed as Homo sapiens) [compound 166]
Peptide exchange: ″+++″ (≧50% = +++)

SUBSTANCE: 155 (RVANLHFPSV; listed as Homo sapiens) [compound 155]
Peptide exchange: ″+++″ (≧50% = +++)

SUBSTANCE: 356 (KLLGKLPEL; listed as Homo sapiens) [compound 356]
Peptide exchange: ″+++″ (≧50% = +++)

Given the substance 158 (KLFDVDEDGYI; listed as Homo sapiens) [compound 158] , write its reported Peptide exchange.
″+++″ (≧50% = +++)

Given the substance 556 (FLTDLEDLTL; listed as Homo sapiens) [compound 556] , write its reported Peptide exchange.
″+++″ (≧50% = +++)

###

Target: HLA-A*02:01 (Homo sapiens, UniProt P04439, D140Y/D185E/D98H/E176V/E277Q/G131W/G231S/I119V/I121R/I166T/I218V/L300P/L318F/N151K/N90K/P208A/P217A/Q86G/Q94H/R138H/R169H/T345S)
Experiment: MHC binding assay (UV-ligand exchange, β2m ELISA, peptide exchange yield)
Details: MHC class I binding score; binding to HLA-A*02:01 ranged by peptide exchange yield (UV-ligand exchange, β2m ELISA)
PROPERTY: Peptide exchange

Here's what some known entries look like.
SUBSTANCE: 167 (KVLEVTEEFGV; listed as Homo sapiens) [compound 167]
Peptide exchange: ″+++″ (≧50% = +++)

SUBSTANCE: 378 (ALGYFVPYV; listed as Homo sapiens) [compound 378]
Peptide exchange: ″+++″ (≧50% = +++)

SUBSTANCE: 551 (KLYESLLPFA; listed as Homo sapiens) [compound 551]
Peptide exchange: ″+++″ (≧50% = +++)

SUBSTANCE: 221 (ALYEEGLLL; listed as Homo sapiens) [compound 221]
Peptide exchange: ″++″ (≧20% = ++)

SUBSTANCE: 564 (TVTNAVVTV; listed as Homo sapiens) [compound 564]
Peptide exchange: ″+++″ (≧50% = +++)

--- query ---
Given the substance 275 (YLVYILNEL; listed as Homo sapiens) [compound 275] , write its reported Peptide exchange.
″++″ (≧20% = ++)

###

Target: HLA-A*02:01 (Homo sapiens, UniProt P04439, D140Y/D185E/D98H/E176V/E277Q/G131W/G231S/I119V/I121R/I166T/I218V/L300P/L318F/N151K/N90K/P208A/P217A/Q86G/Q94H/R138H/R169H/T345S)
Assay: MHC binding assay (UV-ligand exchange, β2m ELISA, peptide exchange yield)
Conditions: MHC class I binding score; binding to HLA-A*02:01 ranged by peptide exchange yield (UV-ligand exchange, β2m ELISA)
PROPERTY: Peptide exchange

Here's what some known entries look like.
SUBSTANCE: 500 (SLMEDQVLQL; listed as Homo sapiens) [compound 500]
Peptide exchange: ″+++″ (≧50% = +++)

SUBSTANCE: 128 (YLFDDPLSAV; listed as Homo sapiens) [compound 128]
Peptide exchange: ″++″ (≧20% = ++)

SUBSTANCE: 562 (YLEELPEKLKL; listed as Homo sapiens) [compound 562]
Peptide exchange: ″+++″ (≧50% = +++)

SUBSTANCE: 530 (VMYADIGGMDI; listed as Homo sapiens) [compound 530]
Peptide exchange: ″+++″ (≧50% = +++)

SUBSTANCE: 165 (SLLDEIRAV; listed as Homo sapiens) [compound 165]
Peptide exchange: ″+++″ (≧50% = +++)

Given the substance 614 (LLLPDQPPYHL; listed as Homo sapiens) [compound 614] , write its reported Peptide exchange.
″+++″ (≧50% = +++)

Given the substance 284 (ILLSQTTGV; listed as Homo sapiens) [compound 284] , write its reported Peptide exchange.
″+++″ (≧50% = +++)

Given the substance 335 (YSLSSVVTV; listed as Homo sapiens) [compound 335] , write its reported Peptide exchange.
″+++″ (≧50% = +++)

###

Biological target: HLA-A*02:01 (Homo sapiens, UniProt P04439, D140Y/D185E/D98H/E176V/E277Q/G131W/G231S/I119V/I121R/I166T/I218V/L300P/L318F/N151K/N90K/P208A/P217A/Q86G/Q94H/R138H/R169H/T345S)
Test: MHC binding assay (UV-ligand exchange, β2m ELISA, peptide exchange yield)
Settings: MHC class I binding score; binding to HLA-A*02:01 ranged by peptide exchange yield (UV-ligand exchange, β2m ELISA)
PROPERTY: Peptide exchange

SUBSTANCE: 380 (TLIEDEIATI; listed as Homo sapiens) [compound 380]
Peptide exchange: ″++″ (≧20% = ++)
--
SUBSTANCE: 201 (RLVDYLEGI; listed as Homo sapiens) [compound 201]
Peptide exchange: ″+++″ (≧50% = +++)
--
SUBSTANCE: 215 (QLINHLHAV; listed as Homo sapiens) [compound 215]
Peptide exchange: ″+++″ (≧50% = +++)
--
SUBSTANCE: 238 (YLISFQTHI; listed as Homo sapiens) [compound 238]
Peptide exchange: ″+++″ (≧50% = +++)
--
SUBSTANCE: 353 (YLFEMDSSL; listed as Homo sapiens) [compound 353]
Peptide exchange: ″++″ (≧20% = ++)
--
SUBSTANCE: 543 (GLLPTPITQQASL; listed as Homo sapiens) [compound 543]
Peptide exchange: ″+++″ (≧50% = +++)
--
SUBSTANCE: 253 (GLDAATATV; listed as Homo sapiens) [compound 253]
Peptide exchange: ″++″ (≧20% = ++)
--
SUBSTANCE: 122 (FLLAEDDIYL; listed as Homo sapiens) [compound 122]
Peptide exchange: ″+++″ (≧50% = +++)

Given the substance 193 (QLLDADGFLNV; listed as Homo sapiens) [compound 193] , write its reported Peptide exchange.
″+++″ (≧50% = +++)

Given the substance 557 (KLYDDMIRL; listed as Homo sapiens) [compound 557] , write its reported Peptide exchange.
″+++″ (≧50% = +++)
